- System: OCI-AML2;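 further: after 48 h exposure read by CellTiter-Glo luminescence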
- assay.info: cell viability relative to vehicle control; higher = less cytotoxic
- stated.conditions: 10 µM; SRSF2 genotype: P95H/wt
Where a name gives a salt, the structure may show the parent alone.
So I've got a bunch of compounds here, and I need their cell viability values.
Write the value in % as a bare number.

Task: Which value of cell viability has been reported for `O=[N+]([O-])c1ccc(S(=O)(=O)N2CCN(c3ccnc4cc(Cl)ccc34)CC2)c([N+](=O)[O-])c1` in the records?
Output: 0.47

Task: Same again, this time with `CC(C)[C@H](NC(=O)[C@H](CC(=O)O)NC(=O)[C@H](CCCCN)NC(=O)[C@@H](N)CCCN=C(N)N)C(=O)N[C@@H](Cc1ccc(O)cc1)C(=O)O`
Output: 77.9

Task: Same again, this time with `COC(=O)Nc1nc2cc(C(=O)c3ccc(F)cc3)ccc2[nH]1`
Output: 6.97

Task: Same again, this time with `CCOc1ccc(NC(C)=O)cc1`
Output: 88.3

Task: Same again, this time with `COc1ccc(-n2c(SCCCN3C(=O)c4cccc5cccc(c45)C3=O)nnc2-c2ccncc2)cc1`
Output: 95.5

Task: Same again, this time with `O=C1CCN(c2ccccc2)N1`
Output: 99.5

Task: Same again, this time with `NC(=O)c1cnc2[nH]ccc2c1N[C@@H]1[C@@H]2CC3C[C@H]1C[C@@](O)(C3)C2`
Output: 15.3

Task: Same again, this time with `CC(C)n1nccc1-c1ncccc1COc1cccc(O)c1C=O`
Output: 99.7

Task: Same again, this time with `CCCCCCCCC[C@H](O)CC(=O)CCc1ccc(O)c(OC)c1`
Output: 82.5

Task: Same again, this time with `O=c1c(-c2ccc(O)cc2)coc2c([C@@H]3O[C@H](CO)[C@@H](O)[C@H](O)[C@H]3O)c(O)ccc12`
Output: 96.4

Task: Same again, this time with CC(C)(C)NC[C@H](O)COc1nsnc1N1CCOCC1 [Timolol Maleate]
Output: 103

Task: Same again, this time with C[C@@H](O)[C@H]1C(=O)N2C(C(=O)O)=C([C@H]3CCCO3)S[C@H]12 [Faropenem Sodium]
Output: 87.1

Task: Same again, this time with `COc1cc2c(cc1OC)[C@H]1[C@@H](C)c3ccc(OC)c(OC)c3CN1CC2`
Output: 73.8

Task: Same again, this time with `Nc1ncnc2c1c(-c1cnc3[nH]ccc3c1)nn2C1CCCC1`
Output: 2.15

Task: Same again, this time with `Cc1cnc(-c2ccccc2C(C)C)nc1NCc1ccc(-n2ccnn2)cc1`
Output: 93.2

Task: Same again, this time with COc1cc(C[C@@H](CO[C@@H]2O[C@H](CO)[C@@H](O)[C@H](O)[C@H]2O)[C@H](CO[C@@H]2O[C@H](CO)[C@@H](O)[C@H](O)[C@H]2O)Cc2ccc(O)c(OC)c2)ccc1O [Secoisolariciresinol diglucoside]
Output: 96.8
